Recorded Activity values for a group of compounds are listed next.
- Tested on: Avian myeloblastosis virus
- Procedure Summary: Inhibition of AMV reverse transcriptase activity assessed as incorporation of dGMP in poly(rC)-oligo(dG) at 1 uM
- Set-up: scale not given: the % may be the effect or the level left
Your answer should be a plain number; it is taken to be in %.

{"Compound": "O=C(O[C@@H]1O[C@@H]2COC(=O)c3cc(Oc4c(C(=O)O[C@@H]5O[C@@H]6COC(=O)c7cc(O)c(O)c(O)c7-c7c(cc(O)c(O)c7O)C(=O)O[C@H]6[C@H](OC(=O)c6cc(O)c(O)c(O)c6)[C@H]5OC(=O)c5cc(O)c(O)c(O)c5)cc(O)c(O)c4O)c(O)c(O)c3-c3c(cc(O)c(O)c3O)C(=O)O[C@H]2[C@H](OC(=O)c2cc(O)c(O)c(O)c2)[C@H]1OC(=O)c1cc(O)c(O)c(O)c1)c1cc(O)c(O)c(O)c1", "Activity, %": 54}
{"Compound": "O=C[C@@H]1OC(=O)c2c3c(O)c(O)c(O)c2-c2c(cc(O)c(O)c2O)C(=O)O[C@H]1[C@@H]1OC(=O)c2c(c(O)c(O)c(O)c2-c2c(cc(O)c(O)c2O)C(=O)O[C@H]1COC(=O)c1cc(O)c(O)c(O)c1)O[C@H]1[C@@H]2OC(=O)c4cc(O)c(O)c(O)c4-c4c(cc(O)c(O)c4O)C(=O)O[C@H]2[C@H](OC(=O)c2cc(O)c(O)c(O)c2)O[C@@H]1CO3", "Activity, %": 73}
{"Compound": "O=C[C@H](OC(=O)c1cc(O)c(O)c(O)c1)[C@@H](OC(=O)c1cc(O)c(O)c(O)c1)[C@@H]1OC(=O)c2cc(O)c(O)c(O)c2-c2c(cc(Oc3c(C(=O)O[C@@H](C=O)[C@@H](OC(=O)c4cc(O)c(O)c(O)c4)[C@@H]4OC(=O)c5cc(O)c(O)c(O)c5-c5c(cc(O)c(O)c5O)C(=O)OC[C@H]4O)cc(O)c(O)c3O)c(O)c2O)C(=O)OC[C@H]1O", "Activity, %": 76}
{"Compound": "O=C(OC[C@H]1O[C@@H](OC(=O)c2cc(O)c(O)c(O)c2)[C@H](OC(=O)c2cc(O)c(O)c(O)c2)[C@@H](OC(=O)c2cc(O)c(O)c(O)c2)[C@@H]1OC(=O)c1cc(O)c(O)c(O)c1)c1cc(O)c(O)c(O)c1", "Activity, %": 62}

// query Form field: Activity recorded for O=C1OC[C@H]2OC(O)[C@@H]3OC(=O)c4cc(O)c(O)c(O)c4-c4c(cc(O)c(O)c4O)C(=O)O[C@H]3[C@@H]2OC(=O)c2cc(O)c(O)c(O)c2-c2c1cc(O)c(O)c2O (some centres not stated) with Avian myeloblastosis virus (enter value)
// result 73

// query What is its Activity for Avian myeloblastosis virus? Entry: O=C(O[C@H]1O[C@@H]2COC(=O)c3cc(O)c(O)c(O)c3-c3c(cc(O)c(O)c3O)C(=O)O[C@H]2[C@@H]2OC(=O)c3cc(O)c(O)c(O)c3-c3c(cc(O)c(O)c3O)C(=O)O[C@@H]12)c1cc(O)c(O)c(Oc2c(C(=O)O[C@H]3O[C@@H]4COC(=O)c5cc(O)c(O)c(O)c5-c5c(cc(O)c(O)c5O)C(=O)O[C@H]4[C@@H]4OC(=O)c5cc(O)c(O)c(O)c5-c5c(cc(O)c(O)c5O)C(=O)O[C@@H]34)cc(O)c(O)c2O)c1
// result 68

// query Request - read-out Activity | tested on Avian myeloblastosis virus | compound O=C(O)C[C@H]1C(=O)O[C@H]2[C@H](OC(=O)c3cc(O)c(O)c(O)c3)[C@@H](OC(=O)c3cc(O)c(O)c4c3[C@H]1[C@H](O)C(=O)O4)[C@H](OC(=O)c1cc(O)c(O)c(O)c1)O[C@@H]2COC(=O)c1cc(O)c(O)c(O)c1
// result 67

###

- System: Avian myeloblastosis virus
- Procedure Summary: Inhibition of AMV reverse transcriptase activity assessed as incorporation of dTMP in poly(rA)-oligo(dT) at 10 uM
- Set-up: scale not given: the % may be the effect or the level left
Entries and their measured Activity follow.
Expressed in %, but write only the number.

{"Smiles Record": "O=C(O)C[C@H]1C(=O)O[C@H]2[C@H](OC(=O)c3cc(O)c(O)c(O)c3)[C@@H](OC(=O)c3cc(O)c(O)c4c3[C@H]1[C@H](O)C(=O)O4)[C@H](OC(=O)c1cc(O)c(O)c(O)c1)O[C@@H]2COC(=O)c1cc(O)c(O)c(O)c1", "Target Of Assay": "Avian myeloblastosis virus", "Unit Tag": "%", "Activity": 22}
{"Smiles Record": "O=C1O[C@@H]2[C@@H](OC(=O)c3cc(O)c(O)c(O)c3-c3c1cc(O)c(O)c3O)[C@H](O)O[C@@H]1COC(=O)c3cc(O)c(O)c(O)c3-c3c(O)c(O)c4oc(=O)c5c(c(O)c(O)c6oc(=O)c3c4c65)-c3c(cc(O)c(O)c3O)C(=O)O[C@@H]21", "Target Of Assay": "Avian myeloblastosis virus", "Unit Tag": "%", "Activity": 19}
{"Smiles Record": "O=C(O[C@@H]1O[C@@H]2COC(=O)c3cc(O)c(O)c(O)c3-c3c(cc(O)c(O)c3O)C(=O)O[C@H]([C@H]1O)[C@@H]2O)c1cc(O)c(O)c(O)c1", "Target Of Assay": "Avian myeloblastosis virus", "Unit Tag": "%", "Activity": 88}

// query Which Activity is reported for this compound? O=C(OC[C@H]1O[C@@H](OC(=O)c2cc(O)c(O)c(O)c2)[C@H](OC(=O)c2cc(O)c(O)c(O)c2)[C@@H](OC(=O)c2cc(O)c(O)c(O)c2)[C@@H]1OC(=O)c1cc(O)c(O)c(O)c1)c1cc(O)c(O)c(O)c1
// result 30

###

- System: Avian myeloblastosis virus
- Procedure Summary: Inhibition of AMV reverse transcriptase activity assessed as incorporation of dGMP in poly(rC)-oligo(dG) at 10 uM
- Parameters: scale not given: the % may be the effect or the level left
// values below are reported Activity
Entry format: amount then unit.

// query Activity for O=C(O)C[C@@H]1C(=O)O[C@H]2[C@@H]3OC(=O)c4cc(O)c(O)c(O)c4-c4c(cc(O)c(O)c4O)C(=O)OC[C@H]2O[C@@H](OC(=O)c2cc(O)c(O)c(O)c2)[C@@H]3OC(=O)c2cc(O)c(O)c3c2[C@H]1[C@H](O)C(=O)O3 ?
// result 74%

// query State the recorded Activity for this entry: O=C(O[C@@H]1O[C@@H]2COC(=O)c3cc(Oc4c(C(=O)O[C@@H]5O[C@@H]6COC(=O)c7cc(O)c(O)c(O)c7-c7c(cc(O)c(O)c7O)C(=O)O[C@H]6[C@H](OC(=O)c6cc(O)c(O)c(O)c6)[C@H]5OC(=O)c5cc(O)c(O)c(O)c5)cc(O)c(O)c4O)c(O)c(O)c3-c3c(cc(O)c(O)c3O)C(=O)O[C@H]2[C@H](OC(=O)c2cc(O)c(O)c(O)c2)[C@H]1OC(=O)c1cc(O)c(O)c(O)c1)c1cc(O)c(O)c(O)c1
// result 12%

###

- Test system: Avian myeloblastosis virus
- Procedure Summary: Inhibition of AMV reverse transcriptase activity assessed as incorporation of dTMP in poly(rA)-oligo(dT) at 0.1 uM
- Set-up: scale not given: the % may be the effect or the level left
Attribute Measured: Activity (%)
Entry rule: numbers only, all in %.

// known answers, use as guide
{"Smiles Record": "O=C[C@@H]1OC(=O)c2c3c(O)c(O)c(O)c2-c2c(cc(O)c(O)c2O)C(=O)O[C@H]1[C@@H]1OC(=O)c2c(c(O)c(O)c(O)c2-c2c(cc(O)c(O)c2O)C(=O)O[C@H]1COC(=O)c1cc(O)c(O)c(O)c1)O[C@H]1[C@@H]2OC(=O)c4cc(O)c(O)c(O)c4-c4c(cc(O)c(O)c4O)C(=O)O[C@H]2[C@H](OC(=O)c2cc(O)c(O)c(O)c2)O[C@@H]1CO3", "Attribute Measured": "Activity", "Measured Result": 66}
{"Smiles Record": "O=C(O[C@@H]1O[C@@H]2COC(=O)c3cc(O)c(O)c(O)c3-c3c(cc(O)c(O)c3O)C(=O)O[C@H]2[C@H](OC(=O)c2cc(O)c(O)c(O)c2)[C@H]1OC(=O)c1cc(O)c(O)c(O)c1)c1cc(O)c(O)c(Oc2c(C(=O)O[C@H]3O[C@@H]4COC(=O)c5cc(O)c(O)c(O)c5-c5c(cc(O)c(O)c5O)C(=O)O[C@H]4[C@H](OC(=O)c4cc(O)c(O)c(O)c4)[C@H]3OC(=O)c3cc(O)c(O)c(O)c3)cc(O)c(O)c2O)c1", "Attribute Measured": "Activity", "Measured Result": 73}
{"Smiles Record": "O=C1O[C@H]2[C@@H]3OC(=O)c4cc(O)c(O)c(O)c4-c4c(cc(O)c(O)c4O)C(=O)OC[C@H]2O[C@@H](OC(=O)c2cc(O)c(O)c(O)c2)[C@@H]3OC(=O)c2cc(O)c(O)c3c2[C@@H]2C1=CC(=O)[C@](O)(O3)C2(O)O", "Attribute Measured": "Activity", "Measured Result": 89}

Consider now this further compound.
// query Activity lookup needed for O=C(O)c1cc(O)c(O)c(O)c1 , thanks.
// result 84

meta.source: ChEMBL document CHEMBL1151661
